System: HCC1937 cells
Experiment: Monolayer growth inhibition, Alamar blue assay
Assay type: cell-based
Details: Homo sapiens; HCC1937 (TNBC, BRCA Mutant), 5 days, single dose on day 1
pIC50: −log10 of the molar value. Structures can show the parent of a compound that is named as a salt.

# COMPOUND, EXPERIMENTAL_SYSTEM, CENSORING_OPERATOR, pIC50
measured = [
    ("C[C@@H]1CNC(=O)c2c(Cl)c3ccc(C(=O)Nc4cnn(Cc5ccccc5)c4)nc3n21", "HCC1937 cells", "=", 5.04),
    ("C[C@@H]1CNC(=O)c2cc3ccc(C(=O)Nc4cnn(Cc5ccc(CN)cc5)c4)nc3n21 [Compound 26, hydrochloride salt]", "HCC1937 cells", "=", 5.25),
    ("C[C@@H]1CNC(=O)c2cc3ccc(C(=O)Nc4ccccc4C(N)=O)nc3n21", "HCC1937 cells", "=", 5.08),
    ("C[C@@H]1CNC(=O)c2cc3ccc(C(=O)Nc4cnn(Cc5ccc(C(F)(F)F)cc5)c4)nc3n21", "HCC1937 cells", "=", 4.90),
    ("C[C@@H]1CNC(=O)c2cc3ccc(C(=O)Nc4cnn(Cc5ccc(F)cc5F)c4)nc3n21", "HCC1937 cells", "=", 4.98),
    ("C[C@@H]1CNC(=O)c2cc3ccc(C(=O)Nc4cnn(Cc5ccccc5N)c4)nc3n21", "HCC1937 cells", "=", 5.17),
    ("C[C@@H]1CNC(=O)c2cc3ccc(NC(=O)c4cnn(Cc5cccc(N)c5)c4)nc3n21", "HCC1937 cells", "=", 4.78),
    ("C[C@@H]1CNC(=O)c2cc3ccc(NC(=O)c4cnn(Cc5ccccc5)c4)cc3n21", "HCC1937 cells", "<", 4.30),
    ("C[C@@H]1CNC(=O)c2cc3ccc(C(=O)Nc4cnn(Cc5ccc(N)cc5)c4)nc3n21 [Compound 25, hydrochloride salt]", "HCC1937 cells", "=", 4.86),
    ("C[C@@H]1CNC(=O)c2cc3ccc(C(=O)Nc4cnn(Cc5cccc(N)c5)c4)nc3n21", "HCC1937 cells", "=", 4.76),
]

----------
Tested on: MDA-MB-468 cells
Experiment: Monolayer growth inhibition, Alamar blue assay
Format: cell-based
Details: Homo sapiens, MDA-MB-468, MDA-MB-468 (TNBC), 5 days, single dose on day 1
Description: In all instances a single dose was given on day 1 of the experiment.
pIC50: −log10 of the molar value.
VALUE_KIND: pIC50

# SUBSTANCE_SMILES, EXPERIMENTAL_SYSTEM, VALUE_KIND, MEASURED
measured = [
    ("C[C@@H]1CNC(=O)c2cc3ccc(NC(=O)c4cnn(Cc5ccccc5)c4)nc3n21", "MDA-MB-468 cells", "pIC50", 4.88),
]

----------
// pIC50 lookup, one value per entry
System: MDA-MB-231 cells
Assay: Soft agar growth inhibition assay
Type: cell-based
Conditions: Homo sapiens, MDA-MB-231; growth in soft agar (SA); read-out: MDA-MB-231 IC50 (SA)
pIC50: −log10 of the molar value. Counter-ions that a name gives are not always drawn.

# COMPOUND, pIC50
data = [
    ("CC(=O)O[C@H]1C(=O)[C@@]2(C)[C@H]([C@H](OC(=O)c3ccccc3)[C@]3(O)C[C@H](OC(=O)[C@H](O)[C@@H](NC(=O)c4ccccc4)c4ccccc4)C(C)=C1C3(C)C)[C@]1(OC(C)=O)CO[C@@H]1C[C@@H]2O [Taxol, paclitaxel, reference compound]", 8.85),
    ("C[C@@H]1CNC(=O)c2cc3ccc(C(=O)Nc4cnn(Cc5ccccc5)c4)nc3n21 [Compound 0, reference compound]", 6.70),
    ("C[C@@H]1CNC(=O)c2cc3ccc(C(=O)Nc4cnn(Cc5ccc(N)cc5)c4)nc3n21 [Compound 25, hydrochloride salt]", 6.70),
    ("C[C@@H]1CNC(=O)c2cc3ccc(C(=O)Nc4cnn(Cc5ccc(N)cc5)c4)nc3n21 [Compound 18]", 7.00),
    ("C[C@@H]1CNC(=O)c2cc3ccc(C(=O)Nc4cnn(Cc5cccc(N)c5)c4)nc3n21 [Compound 16]", 6.70),
]

----------
Test system: SUM149 cells
Assay: Monolayer growth inhibition, Alamar blue assay
Assay type: cell-based
Details: Homo sapiens; SUM149 (TNBC, BRCA Mutant), 5 days, single dose on day 1
Structures can show the parent of a compound that is named as a salt.
Exam item: assign YES to entries whose IC50 is below 10 µM and NO to entries at or above 10 µM. Note that a value of exactly 10 µM receives NO.

# COMPOUND, LABEL_CLASS
records = [
    ("C[C@@H]1CNC(=O)c2cc3ccc(C(=O)Nc4cnn(Cc5ccccc5N)c4)nc3n21 [Compound 17]", "YES"),
    ("C[C@@H]1CNC(=O)c2cc3ccc(NC(=O)c4cnn(Cc5ccccc5)c4)cc3n21 [Compound 11]", "NO"),
    ("C[C@@H]1CNC(=O)c2cc3ccc(C(=O)Nc4ccccc4C(N)=O)nc3n21 [Compound 21]", "YES"),
    ("C[C@@H]1CNC(=O)c2cc3ccc(C(=O)Nc4cnn(Cc5ccc(C(F)(F)F)cc5)c4)nc3n21 [Compound 22]", "YES"),
    ("C[C@@H]1CNC(=O)c2cc3ccc(C(=O)Nc4cnn(Cc5cccc(N)c5)c4)nc3n21 [Compound 16]", "YES"),
    ("C[C@@H]1CNC(=O)c2cc3ccc(NC(=O)c4cnn(Cc5cccc(N)c5)c4)nc3n21 [Compound 19]", "NO"),
    ("C[C@@H]1CNC(=O)c2cc3ccc(C(=O)Nc4cnn(Cc5ccc(N)cc5)c4)nc3n21 [Compound 25, hydrochloride salt]", "NO"),
    ("C[C@@H]1CNC(=O)c2cc3ccc(C(=O)Nc4cnn(Cc5ccc(F)cc5F)c4)nc3n21 [Compound 23]", "YES"),
    ("C[C@@H]1CNC(=O)c2c(Cl)c3ccc(C(=O)Nc4cnn(Cc5ccccc5)c4)nc3n21 [Compound 24]", "YES"),
]

----------
pIC50: −log10 of the molar value.
Reported values: pIC50 for RSK2 (Homo sapiens (Human), UniProt P51812), one per item.
VALUE_KIND: pIC50

# SUBSTANCE_SMILES, VALUE_KIND, MEASURED
records = [
    ("O=C(Nc1ccc2c(CN3CCNCC3)coc2c1)c1cnn(Cc2ccccc2)c1", "pIC50", "< 6.00"),
    ("O=C(Nc1ccc2occ(CN3CCOCC3)c2c1)c1cnn(Cc2ccccc2)c1", "pIC50", "< 5.00"),
    ("O=C(Nc1ccc2scc(CN3CCNCC3)c2c1)c1cnn(Cc2ccccc2)c1", "pIC50", "< 5.00"),
]

----------
Test system: SUM149 cells
Assay: Monolayer growth inhibition, Alamar blue assay
Assay type: cell-based
Details: Homo sapiens, SUM149, SUM149 (TNBC, BRCA Mutant), 5 days, single dose on day 1
VALUE_KIND: IC50 (µM)

# SUBSTANCE_SMILES, MEASURED
rows = [
    ("C[C@@H]1CNC(=O)c2cc3ccc(NC(=O)c4cnn(Cc5ccccc5)c4)nc3n21", 11.7),
]

----------
Tested on: MDA-MB-231 cells
Experiment: Soft agar growth inhibition assay
Type: cell-based
Conditions: Homo sapiens; MDA-MB-231 (TNBC), 14-22 days; read-out: IC50 Values - Soft Agar (14-22 Days)
pIC50: −log10 of the molar value. Where a name gives a salt, the structure may show the parent alone.
VALUE_KIND: pIC50

# COMPOUND, MEASURED
rows = [
    ("C[C@@H]1CNC(=O)c2cc3ccc(C(=O)Nc4ccccc4C(N)=O)nc3n21 [Compound 21]", 5.70),
    ("C[C@@H]1CNC(=O)c2cc3ccc(C(=O)Nc4cnn(Cc5ccc(N)cc5)c4)nc3n21 [Compound 25, hydrochloride salt]", 6.70),
    ("C[C@@H]1CNC(=O)c2c(Cl)c3ccc(C(=O)Nc4cnn(Cc5ccccc5)c4)nc3n21 [Compound 24]", 6.40),
    ("C[C@@H]1CNC(=O)c2cc3ccc(C(=O)Nc4cnn(Cc5ccc(F)cc5F)c4)nc3n21 [Compound 23]", 6.52),
    ("C[C@@H]1CNC(=O)c2cc3ccc(C(=O)Nc4cnn(Cc5ccc(C(F)(F)F)cc5)c4)nc3n21 [Compound 22]", 6.70),
    ("C[C@@H]1CNC(=O)c2cc3ccc(C(=O)Nc4cnn(Cc5ccc(CN)cc5)c4)nc3n21 [Compound 26, hydrochloride salt]", 6.70),
    ("C[C@@H]1CNC(=O)c2cc3ccc(C(=O)Nc4cnn(Cc5cccc(N)c5)c4)nc3n21 [Compound 16]", 6.70),
]

----------
Test system: 4T1 cells
Assay: Monolayer growth inhibition, Alamar blue assay
Format: cell-based
Details: Mus musculus, 4T1, 4T1 (TNBC), 5 days, single dose on day 1
pIC50: −log10 of the molar value.

# SUBSTANCE_SMILES, EXPERIMENTAL_SYSTEM, pIC50
rows = [
    ("C[C@@H]1CNC(=O)c2cc3ccc(NC(=O)c4cnn(Cc5ccccc5)c4)nc3n21", "4T1 cells", 5.06),
    ("C[C@@H]1CNC(=O)c2cc3ccc(C(=O)Nc4cnn(Cc5ccc(N)cc5)c4)nc3n21", "4T1 cells", 5.28),
]
